Test system: CD19+ B cells
Test: B cell proliferation assay (anti-IgM + IL-4, [3H]thymidine)
Type: cell-based, human
Conditions: anti-IgM and IL-4, 4 days
Property: IC50 (nM)
Give the number; nM is assumed, so skip it.

Endpoint output: IC50 of O=C(c1nn([C@@H]2CCCN(CCN3CCOCC3)C2)c2c1CS(=O)(=O)c1cc(F)ccc1-2)N1CCOCC1 . Value?
6

====

Tested on: CD4+CD45RA− memory T-cells
Experiment: T-cell cytokine release assay (anti-CD3/anti-CD28)
Format: cell-based, human
Conditions: Homo sapiens, T-cell, 120 h; memory T-cells; anti-CD3 and anti-CD28, 5 days; read-out: IC50 IL-10
Property: pIC50
Note on pIC50: it is the negative log10 of concentration, concentration in mol/L.

Endpoint output: pIC50 of O=C(c1nn([C@@H]2CCCN(CCN3CCOCC3)C2)c2c1CS(=O)(=O)c1cc(F)ccc1-2)N1CCOCC1 . Value?
7.74
